# Study Target: 5-hydroxytryptamine receptor 6 (Homo sapiens)
# Sequence (P50406 whole entry): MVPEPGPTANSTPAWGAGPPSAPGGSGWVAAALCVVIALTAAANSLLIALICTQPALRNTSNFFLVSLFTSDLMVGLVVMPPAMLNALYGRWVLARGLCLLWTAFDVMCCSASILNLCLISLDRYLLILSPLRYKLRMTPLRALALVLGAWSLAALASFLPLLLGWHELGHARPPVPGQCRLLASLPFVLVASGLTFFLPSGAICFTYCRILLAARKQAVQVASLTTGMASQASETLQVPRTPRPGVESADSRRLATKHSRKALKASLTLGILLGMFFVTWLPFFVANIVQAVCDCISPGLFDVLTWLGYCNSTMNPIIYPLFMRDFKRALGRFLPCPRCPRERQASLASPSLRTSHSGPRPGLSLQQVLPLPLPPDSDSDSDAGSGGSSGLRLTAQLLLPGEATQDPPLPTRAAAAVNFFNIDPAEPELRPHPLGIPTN
Overview of recorded Ki for various compounds

- Smiles Structure: "CSc1ccc(N2CCN(Cc3c[nH]c4ncccc34)CC2)cc1"
  Relation: ">"
  Ki [µM]: 10
- Smiles Structure: "COc1ccccc1N1CCN(Cc2c[nH]c3ncccc23)CC1"
  Relation: "="
  Ki [µM]: 7.38
- Smiles Structure: "CCCc1ccc(N2CCN(Cc3c[nH]c4ncccc34)CC2)cc1"
  Relation: "="
  Ki [µM]: 6.49
- Smiles Structure: "Fc1ccccc1N1CCN(Cc2c[nH]c3ncccc23)CC1"
  Relation: ">"
  Ki [µM]: 10
- Smiles Structure: "COc1ccc(N2CCN(Cc3c[nH]c4ncccc34)CC2)cc1"
  Relation: ">"
  Ki [µM]: 10
- Smiles Structure: "FC(F)(F)c1ccc(N2CCN(Cc3c[nH]c4ncccc34)CC2)cc1"
  Relation: "="
  Ki [µM]: 7.11

###

# Study Target: D(1A) dopamine receptor (Rattus norvegicus, UniProt P18901)
# Sequence (P18901 whole entry): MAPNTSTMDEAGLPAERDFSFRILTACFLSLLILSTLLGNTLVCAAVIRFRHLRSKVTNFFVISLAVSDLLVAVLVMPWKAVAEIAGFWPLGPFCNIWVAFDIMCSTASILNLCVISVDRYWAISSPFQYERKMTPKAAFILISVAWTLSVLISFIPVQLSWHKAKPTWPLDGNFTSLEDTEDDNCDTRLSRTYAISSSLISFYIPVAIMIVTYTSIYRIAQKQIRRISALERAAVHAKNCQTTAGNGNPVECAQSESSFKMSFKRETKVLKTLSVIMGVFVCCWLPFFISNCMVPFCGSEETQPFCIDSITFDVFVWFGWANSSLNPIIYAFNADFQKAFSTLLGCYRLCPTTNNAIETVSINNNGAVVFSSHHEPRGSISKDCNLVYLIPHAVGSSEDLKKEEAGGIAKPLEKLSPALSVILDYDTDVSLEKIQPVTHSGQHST
# Assay Protocol: In vitro binding affinity to cloned rat Dopamine receptor D1 measured by displacement of radioligand [3H]SCH-23,982

- Smiles Structure: "CSc1ccc(N2CCN(Cc3c[nH]c4ncccc34)CC2)cc1"
  Ki: "> 10 µM"
- Smiles Structure: "CCCc1ccc(N2CCN(Cc3c[nH]c4ncccc34)CC2)cc1"
  Ki: "> 10 µM"
- Smiles Structure: "C=Cc1ccc(N2CCN(Cc3c[nH]c4ncccc34)CC2)cc1"
  Ki: "> 10 µM"
- Smiles Structure: "COc1ccc(N2CCN(Cc3c[nH]c4ncccc34)CC2)cc1"
  Ki: "> 10 µM"

###

Recorded Ki for the following molecules
# Study Target: Delta-type opioid receptor (Homo sapiens, UniProt P41143)
# Sequence (P41143 whole entry): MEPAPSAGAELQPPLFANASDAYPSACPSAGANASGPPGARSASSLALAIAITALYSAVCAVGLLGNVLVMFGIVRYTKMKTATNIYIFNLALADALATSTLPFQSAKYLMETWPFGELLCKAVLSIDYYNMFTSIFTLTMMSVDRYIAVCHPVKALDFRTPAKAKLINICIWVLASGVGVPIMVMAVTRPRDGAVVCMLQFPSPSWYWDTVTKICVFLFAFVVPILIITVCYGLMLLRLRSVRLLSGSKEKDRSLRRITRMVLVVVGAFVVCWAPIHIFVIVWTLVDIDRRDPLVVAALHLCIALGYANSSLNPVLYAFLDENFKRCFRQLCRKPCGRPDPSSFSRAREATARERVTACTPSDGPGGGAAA
# Assay Protocol: Binding affinity to cloned Opioid receptor delta 1
Measured Quantity: Ki

- Smiles Structure: "CCc1ccc(N2CCN(Cc3c[nH]c4ncccc34)CC2)cc1"
  Measured Quantity: "Ki"
  Result: "> 10 µM"
- Smiles Structure: "COc1ccc(N2CCN(Cc3c[nH]c4ncccc34)CC2)cc1"
  Measured Quantity: "Ki"
  Result: "> 10 µM"
- Smiles Structure: "COc1ccccc1N1CCN(Cc2c[nH]c3ncccc23)CC1"
  Measured Quantity: "Ki"
  Result: "> 10 µM"

###

# Study Target: 5-hydroxytryptamine receptor 7 (Homo sapiens)
# Sequence (P34969 whole entry): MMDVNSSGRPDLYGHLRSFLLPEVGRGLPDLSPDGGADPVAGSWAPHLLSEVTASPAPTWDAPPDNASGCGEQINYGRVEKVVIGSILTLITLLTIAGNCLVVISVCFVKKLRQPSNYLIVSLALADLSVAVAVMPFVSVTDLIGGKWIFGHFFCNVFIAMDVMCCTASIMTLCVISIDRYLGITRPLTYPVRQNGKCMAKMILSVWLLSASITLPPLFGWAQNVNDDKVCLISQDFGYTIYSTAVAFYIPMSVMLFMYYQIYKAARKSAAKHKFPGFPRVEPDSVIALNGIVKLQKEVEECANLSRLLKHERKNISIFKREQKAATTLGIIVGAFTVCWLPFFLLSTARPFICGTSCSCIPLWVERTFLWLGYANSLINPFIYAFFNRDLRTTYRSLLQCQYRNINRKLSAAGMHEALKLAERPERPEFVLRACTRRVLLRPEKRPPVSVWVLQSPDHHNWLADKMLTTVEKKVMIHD
pKi: −log10 of the molar value.

- Smiles Structure: "C=Cc1ccc(N2CCN(Cc3c[nH]c4ncccc34)CC2)cc1"
  Relation: "<"
  pKi: 5.00
- Smiles Structure: "COc1ccc(N2CCN(Cc3c[nH]c4ncccc34)CC2)cc1"
  Relation: "<"
  pKi: 5.00
- Smiles Structure: "COc1ccccc1N1CCN(Cc2c[nH]c3ncccc23)CC1"
  Relation: "="
  pKi: 6.99
- Smiles Structure: "FC(F)(F)c1ccc(N2CCN(Cc3c[nH]c4ncccc34)CC2)cc1"
  Relation: "="
  pKi: 6.50
- Smiles Structure: "CCCc1ccc(N2CCN(Cc3c[nH]c4ncccc34)CC2)cc1"
  Relation: "="
  pKi: 6.15

###

# Study Target: D(3) dopamine receptor (Rattus norvegicus, UniProt P19020)
# Sequence (P19020 whole entry): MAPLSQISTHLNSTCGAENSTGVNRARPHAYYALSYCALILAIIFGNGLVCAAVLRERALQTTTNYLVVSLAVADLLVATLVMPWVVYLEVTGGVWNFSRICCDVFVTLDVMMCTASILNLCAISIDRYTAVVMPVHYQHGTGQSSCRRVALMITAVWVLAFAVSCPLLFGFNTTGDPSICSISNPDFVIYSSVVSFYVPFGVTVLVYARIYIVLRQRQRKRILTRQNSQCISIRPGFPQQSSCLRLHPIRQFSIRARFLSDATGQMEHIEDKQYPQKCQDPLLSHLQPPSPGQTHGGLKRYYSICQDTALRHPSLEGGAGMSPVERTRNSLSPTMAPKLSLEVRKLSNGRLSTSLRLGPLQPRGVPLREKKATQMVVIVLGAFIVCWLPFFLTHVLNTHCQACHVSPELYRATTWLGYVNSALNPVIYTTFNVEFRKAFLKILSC

- Smiles Structure: "C=Cc1ccc(N2CCN(Cc3c[nH]c4ncccc34)CC2)cc1"
  Study Target: "D(3) dopamine receptor (Rattus norvegicus, UniProt P19020)"
  Ki: "> 10 µM"
- Smiles Structure: "Fc1ccccc1N1CCN(Cc2c[nH]c3ncccc23)CC1"
  Study Target: "D(3) dopamine receptor (Rattus norvegicus, UniProt P19020)"
  Ki: "> 10 µM"
- Smiles Structure: "COc1ccc(N2CCN(Cc3c[nH]c4ncccc34)CC2)cc1"
  Study Target: "D(3) dopamine receptor (Rattus norvegicus, UniProt P19020)"
  Ki: "> 10 µM"
